target: HLA-A*0301 (human); experiment: competition with 125I-labelled standard peptide for purified HLA, gel filtration
Where relative binding ratio (IC50 of standard peptide / IC50 of test peptide) equals or exceeds 0.0005, the correct label is MET; where it does not, the label is NOT MET.

Example entries begin here.
| BINDER | CLASS NAME |
| --- | --- |
| SVYGDTLEK (modifications not checked) [HPV18 E6 peptide … (position 84, 9 amino acids)] | MET |
| LTEVFEFAFK (modifications not checked) [HPV18 E6 peptide … (position 41, 10 amino acids)] | NOT MET |
| NTGLYNLLIR (modifications not checked) [HPV18 E6 peptide … (position 95, 10 amino acids)] | NOT MET |
| TMLCMCCK (modifications not checked) [HPV18 E7 peptide TMLCMCCK (position 60, 8 amino acids)] | MET |
| LIRCLRCQK (modifications not checked) [HPV18 E6 peptide … (position 102, 9 amino acids)] | MET |

For this binder, is measured relative binding ratio (IC50 of standard peptide / IC50 of test peptide) 0.0005 or higher? PLNPAEKLR (modifications not checked) [HPV18 E6 peptide … (position 111, 9 amino acids)]
NOT MET

Entry to check: KLRHLNEKR (modifications not checked) [HPV18 E6 peptide … (position 117, 9 amino acids)]
MET
